# merged literature set: IC50 with 5-hydroxytryptamine receptor 1A (Homo sapiens, UniProt P08908)
Respond numerically; units are nM and should not be typed.

Recorded results for 3 compounds are shown here.
| Compound | Reported property | Val |
| --- | --- | --- |
| O=C(N(CCN1CCN(c2ccccc2O)CC1)c1ccccn1)C12CC3CC(CC(CF)(C3)C1)C2 | IC50 | 2.59 |
| CC(CCCN1C(=O)CC(C)(C)CC1=O)N1CCN(c2ncc(F)cn2)CC1 (centres undefined) | IC50 | 87 |
| COc1ccccc1N1CCN(CCN(C(=O)C23CCC(I)(CC2)CC3)c2ccccn2)CC1 | IC50 | 2.61 |

*Q* // returns reported IC50 for input `O=C1c2ccccc2C(=O)N1CCCCN1CCN(c2ncccn2)CC1`
*A* 60

*Q* // returns reported IC50 for input `O=C(c1ccc(F)cc1)N1CCN(c2nc3ccsc3n3cccc23)CC1`
*A* 102000

*Q* // returns reported IC50 for input `FC(F)(F)c1cccc(N2CCN(c3nc4ccsc4n4cccc34)CC2)c1`
*A* 288

*Q* // returns reported IC50 for input `O=C1CC2(CCCC2)CC(=O)N1CCCCN1CCN(c2ccc(F)cc2)CC1`
*A* 64

*Q* // returns reported IC50 for input `CC(C)(CCN1C(=O)CC2(CCCC2)CC1=O)CN1CCN(c2ncccn2)CC1`
*A* 710

*Q* // returns reported IC50 for input `Cc1ccc2c3c(ccc2n1)OC[C@H](CN1CCN(c2ccc4ccccc4n2)CC1)O3`
*A* 4870

*Q* // returns reported IC50 for input `Cc1nc(C(=O)NCCN2CCN(c3cccc(Cl)c3Cl)CC2)c(C)n1-c1ccccc1`
*A* 3.9

*Q* // returns reported IC50 for input `Fc1ccc(CN2CCN(c3nc4ccsc4n4cccc34)CC2)cc1`
*A* 347

*Q* // returns reported IC50 for input `Cc1ccc2c3c(ccc2n1)OC[C@H](CN1CCN(c2ccc4cc(C#N)ccc4n2)CC1)O3`
*A* 102

*Q* // returns reported IC50 for input `c1cc2c(N3CCNCC3)nc3ccsc3n2c1`
*A* 58.9

*Q* // returns reported IC50 for input `O=C(C1CCCCC1)N(CCN1CCN(c2ccccc2O)CC1)c1ccccn1`
*A* 0.77

*Q* // returns reported IC50 for input `Cc1ccc2c3c(ccc2n1)OC[C@H](CN1CCN(c2ccc4ccccc4n2)C[C@H]1C)O3`
*A* 117

*Q* // returns reported IC50 for input `Clc1ccc(CN2CCN(c3nc4sccc4n4cccc34)CC2)cc1Cl`
*A* 10200

*Q* // returns reported IC50 for input `COc1cc(N2CCN(C3CCN(c4cccc5ccc(C(F)(F)F)nc45)CC3)CC2)c2ncccc2c1`
*A* 23

*Q* // returns reported IC50 for input `COc1cc(N2CCN(C3CCN(c4cc(Br)cc5cccnc45)CC3)CC2)c2ncccc2c1`
*A* 10

*Q* // returns reported IC50 for input `c1cc2c(N3CCCCC3)nc3ccsc3n2c1`
*A* 64600

*Q* // returns reported IC50 for input `O=C(N(CCN1CCN(c2ccccc2O)CC1)c1ccccn1)C12CCC(I)(CC1)C2`
*A* 1.19

*Q* // returns reported IC50 for input NC(=O)c1ccc(F)c2c1CC(N(CCCc1c[nH]c3c(F)cc(F)cc13)C1CCC1)CO2 (single isomer, unassigned; (-))
*A* 206

*Q* // returns reported IC50 for input `Cc1ccc2c3c(ccc2n1)OC[C@H](CN1CCN(c2ccc4cc([N+](=O)[O-])ccc4n2)CC1)O3`
*A* 294

---

# merged literature set: pIC50 with 5-hydroxytryptamine receptor 1A (Homo sapiens, UniProt P08908)
// scale note: pIC50 = -log10(conc_M); give the bare number

Recorded results for 6 compounds are shown here.
| Compound | Val |
| --- | --- |
| Cc1sc2c(nc(N3CCN(Cc4ccccc4)CC3)c3cccn32)c1C | 3.90 |
| Cc1cnc(N[C@H]2CC[C@@H](CNC(=O)c3cc(C(F)(F)F)cc(C(F)(F)F)c3)CC2)nc1N(C)C | 5.32 |
| Cc1ccc2c3c(ccc2n1)OC[C@H](CN1CCCN(c2ccc4cc(C#N)ccc4n2)CC1)O3 | 7.24 |
| COc1cc(N2CCN(C3CCN(c4ccc(F)c5ccc(C(F)(F)F)nc45)CC3)CC2)c2ncccc2c1 | 8.15 |
| O=C(N(CCN1CCN(c2ccccc2O)CC1)c1ccccn1)C12CCC(CF)(CC1)C2 | 8.76 |
| COc1cccc2c1C[C@@H](N(CCCc1c[nH]c3ccc(F)cc13)C1CCC1)CO2 | 7.64 |

*Q* Hi! What's the reported pIC50 for `O=C1c2ccccc2C(=O)N1CCCCN1CCN(c2ncc(F)cn2)CC1` on 5-hydroxytryptamine receptor 1A (Homo sapiens, UniProt P08908)?
*A* 6.36

*Q* Hi! What's the reported pIC50 for O=C1CC2(CCCC2)CC(=O)N1CCC(O)CN1CCN(c2ccc(F)cc2)CC1 (stereo not drawn) on 5-hydroxytryptamine receptor 1A (Homo sapiens, UniProt P08908)?
*A* 7.16

*Q* Hi! What's the reported pIC50 for `c1ccc(CN2CCN(c3nc4sc(-c5ccccc5)cc4n4cccc34)CC2)cc1` on 5-hydroxytryptamine receptor 1A (Homo sapiens, UniProt P08908)?
*A* 3.41

*Q* Hi! What's the reported pIC50 for COc1ccccc1N1CCN(CCN(C(=O)C23C4C5C2C2C3C4C52I)c2ccccn2)CC1 (stereo not drawn) on 5-hydroxytryptamine receptor 1A (Homo sapiens, UniProt P08908)?
*A* 8.59

*Q* Hi! What's the reported pIC50 for `Cc1ccc2c3c(ccc2n1)OC[C@H](CN1CCN(c2ccc4cc(OC(F)(F)F)ccc4n2)CC1)O3` on 5-hydroxytryptamine receptor 1A (Homo sapiens, UniProt P08908)?
*A* 6.23

---

# merged literature set: pIC50 with the protein given by its sequence
Protein target, amino acids: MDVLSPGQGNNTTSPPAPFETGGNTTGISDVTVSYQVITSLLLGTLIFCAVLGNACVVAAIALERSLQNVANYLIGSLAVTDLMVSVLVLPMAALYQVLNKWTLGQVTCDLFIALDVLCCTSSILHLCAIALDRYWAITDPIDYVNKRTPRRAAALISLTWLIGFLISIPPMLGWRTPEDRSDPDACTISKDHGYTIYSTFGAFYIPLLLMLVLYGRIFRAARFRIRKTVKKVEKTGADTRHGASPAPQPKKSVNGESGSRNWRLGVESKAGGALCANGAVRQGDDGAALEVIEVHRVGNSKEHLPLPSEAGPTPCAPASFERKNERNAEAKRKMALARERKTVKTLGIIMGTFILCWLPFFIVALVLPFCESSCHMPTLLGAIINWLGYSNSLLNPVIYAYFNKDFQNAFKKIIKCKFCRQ
pIC50: −log10 of the molar value.

| Compound | pIC50 |
| --- | --- |
| CN(C)CCC1CC2c3ccccc3Cc3ccccc3N2O1 (stereo not drawn) | < 6.00 |
| Cl.N=C(N)N/N=C1\CCc2ccc(NS(=O)(=O)c3ccc4ccccc4c3)cc21 | < 6.00 |

*Q* Hi! What's the reported pIC50 for `O=C(Nc1ccc(Oc2cccnc2)nc1)c1c[nH]c2ccccc12` on the protein given by its sequence?
*A* < 5.00

---

# merged literature set: pIC50 with UniProt P08908
Target: UniProt P08908
Sequence (P08908 whole entry): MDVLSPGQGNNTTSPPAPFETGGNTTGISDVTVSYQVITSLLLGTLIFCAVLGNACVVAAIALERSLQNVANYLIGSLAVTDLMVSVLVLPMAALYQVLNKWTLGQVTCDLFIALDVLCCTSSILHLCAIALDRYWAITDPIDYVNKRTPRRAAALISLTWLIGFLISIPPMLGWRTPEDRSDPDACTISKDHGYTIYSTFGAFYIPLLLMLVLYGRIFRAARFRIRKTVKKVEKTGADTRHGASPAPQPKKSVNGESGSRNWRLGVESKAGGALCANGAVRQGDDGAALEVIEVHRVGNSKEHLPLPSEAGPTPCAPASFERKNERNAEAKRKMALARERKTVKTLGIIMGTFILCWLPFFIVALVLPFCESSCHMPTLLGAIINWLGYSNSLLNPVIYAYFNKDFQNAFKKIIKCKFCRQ
pIC50: −log10 of the molar value.

Recorded results for 5 compounds are shown here.
| Compound | pIC50 |
| --- | --- |
| CN(C)C(=O)c1ccc(F)c2c1CC(N(CCCc1c[nH]c3ccc(F)cc13)C1CCC1)CO2 (stereo unspecified) | < 5.70 |
| Cl.N=C(N)N/N=C1\CCc2ccc(NS(=O)(=O)c3c(Cl)nc4sccn34)cc21 | < 5.00 |
| CN(C)CCC1=CCc2ccc(NS(=O)(=O)c3c(Cl)nc4sccn34)cc21 | < 6.00 |
| COc1ccccc1N1CCN(CCN(C(=O)C23CC4CC(CC(I)(C4)C2)C3)c2ccccn2)CC1 | 8.30 |
| O=C(NCC1CC1)c1ccc(F)c2c1CC(N(CCCc1c[nH]c3ccc(F)cc13)C1CCC1)CO2 (stereo unspecified) | < 6.00 |

Consider the additional compound presented here.
*Q* Hi! What's the reported pIC50 for `COc1cc2c(cc1NS(=O)(=O)c1c(Cl)nc3sccn13)C(C)=C(C)C2` on UniProt P08908?
*A* < 5.00
